# assayed.system: ALK5 (Homo sapiens (Human))
# Sequence (P36897 34-503): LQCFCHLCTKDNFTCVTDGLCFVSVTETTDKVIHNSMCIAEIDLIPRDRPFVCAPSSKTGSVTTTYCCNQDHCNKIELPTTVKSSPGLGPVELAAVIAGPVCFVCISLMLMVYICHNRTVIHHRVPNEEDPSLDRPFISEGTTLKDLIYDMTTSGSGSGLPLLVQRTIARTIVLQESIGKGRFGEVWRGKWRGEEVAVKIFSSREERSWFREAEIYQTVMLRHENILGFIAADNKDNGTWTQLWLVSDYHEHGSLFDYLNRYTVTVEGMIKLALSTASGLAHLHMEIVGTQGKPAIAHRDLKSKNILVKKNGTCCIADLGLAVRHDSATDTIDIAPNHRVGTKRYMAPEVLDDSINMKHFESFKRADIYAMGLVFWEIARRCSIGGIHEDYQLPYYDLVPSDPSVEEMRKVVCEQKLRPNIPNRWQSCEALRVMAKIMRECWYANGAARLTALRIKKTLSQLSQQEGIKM
# measurement.description: Cell-free assay for inhibition of ALK5 kinase phosphorylation
# Assay type: biochemical
# experimental.parameters: read-out: IC50 on ALK5 kinase phosphorylation
measured.endpoint: IC50 (nM)

                  compound_structure_string  measured_endpoint  obs_value
0  Cc1cccc(-c2[nH]c(CNc3ccccc3C(C)C)nc2-c2ccc3ncnn3c2)n1               IC50       14.2
1  CCc1cccc(NCc2nc(-c3ccc4ncnn4c3)c(-c3cccc(C)n3)[nH]2)c1               IC50       8.01
2  COC(=O)c1cccc(NCc2nc(-c3ccc4ncnn4c3)c(-c3cccc(C)n3)[nH]2)c1               IC50       16.6
3  Cc1cccc(-c2[nH]c(CNc3ccc(C#N)cc3)nc2-c2ccc3ncnn3c2)n1               IC50       32.1
